System: LG0567-F671-PDC complex spheroids viability
Assay: Anticancer human tumor LG0567-F671-PDC patient-derived lung adenocarcinoma cell line growth inhibition [RAS]
Settings: curve of first compound; second compound 0.3 µM
pIC50: −log10 of the molar value.
endpoint name: pIC50

C=CC(=O)N1CCN(c2nc(OCC3CCCN3C)nc3c(F)c(-c4nc(N)cc(C)c4C(F)(F)F)c(Cl)cc23)C(C)C1 (stereo unspecified) + CCn1c(-c2cc(N3CCN(C)CC3)cnc2C(C)OC)c2c3cc(ccc31)-c1csc(n1)CC(NC(=O)C1CC1C)C(=O)N1CCCC(N1)C(=O)OCC(C)(C)C2; > 8.50
CC(Nc1ccc2c(c1)OCCn1cc(N3C(=O)OCC3C(F)F)nc1-2)C(N)=O (stereo unspecified) + CCn1c(-c2cc(N3CCN(C)CC3)cnc2C(C)OC)c2c3cc(ccc31)-c1csc(n1)CC(NC(=O)C1CC1C)C(=O)N1CCCC(N1)C(=O)OCC(C)(C)C2; > 7.50
CC(C)NCC(C(=O)N1CCN(c2ncnc3c2C(C)CC3O)CC1)c1ccc(Cl)cc1 (stereo unspecified) + CCn1c(-c2cc(N3CCN(C)CC3)cnc2C(C)OC)c2c3cc(ccc31)-c1csc(n1)CC(NC(=O)C1CC1C)C(=O)N1CCCC(N1)C(=O)OCC(C)(C)C2; > 7.50
CCN1CCN(Cc2ccc(Nc3ncc(F)c(-c4cc(F)c5nc(C)n(C(C)C)c5c4)n3)nc2)CC1 + CCn1c(-c2cc(N3CCN(C)CC3)cnc2C(C)OC)c2c3cc(ccc31)-c1csc(n1)CC(NC(=O)C1CC1C)C(=O)N1CCCC(N1)C(=O)OCC(C)(C)C2; > 8.50
CC(C)NCC(C(=O)N1CCN(c2ncnc3c2C(C)CC3O)CC1)c1ccc(Cl)cc1 (stereo unspecified) + CCn1c(-c2cccnc2C(C)OC)c2c3cc(ccc31)N1CCOC(CC(NC(=O)C(C(C)C)N(C)C(=O)C3(F)CCN(C(=O)C#CC(C)(C)N(C)C)CC3)C(=O)N3CCCC(N3)C(=O)OCC(C)(C)C2)C1; > 7.50

Kindly consider the entry below.
Reported pIC50, compound C=CC(=O)Nc1cc(Nc2nccc(-c3cn(C)c4ccccc34)n2)c(OC)cc1N(C)CCN(C)C + CCn1c(-c2cc(N3CCN(C)CC3)cnc2C(C)OC)c2c3cc(ccc31)-c1csc(n1)CC(NC(=O)C1CC1C)C(=O)N1CCCC(N1)C(=O)OCC(C)(C)C2 : ____
> 8.50

====

System: LG0567-F671-PDC complex spheroids viability
Test: Anticancer human tumor LG0567-F671-PDC cell line growth inhibition [RAS];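 note: luminescence signal used as a proxy for viable cells; spheroids exposed to compound for seven days before readout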
Conditions: curve of first compound; second compound 0.3 µM
pIC50: −log10 of the molar value.
endpoint name: pIC50

Known results for compounds:
CCc1c2c(nc3ccc(O)cc13)-c1cc3c(c(=O)n1C2)COC(=O)[C@]3(O)CC + CCn1c(-c2cccnc2C(C)OC)c2c3cc(ccc31)N1CCOC(CC(NC(=O)C(C(C)C)N(C)C(=O)C3(F)CCN(C(=O)C#CC(C)(C)N(C)C)CC3)C(=O)N3CCCC(N3)C(=O)OCC(C)(C)C2)C1; > 9.02
CCC(CC)c1cc(NC2CCC(N)C2)n2nccc2n1 (centres undefined) + CCn1c(-c2cc(N3CCN(C)CC3)cnc2C(C)OC)c2c3cc(ccc31)-c1csc(n1)CC(NC(=O)C1CC1C)C(=O)N1CCCC(N1)C(=O)OCC(C)(C)C2; > 7.50
C[C@@H](NC(=O)c1ncnc(N)c1Cl)c1ncc(C(=O)Nc2cc(C(F)(F)F)c(Cl)cn2)s1 + CCn1c(-c2cccnc2C(C)OC)c2c3cc(ccc31)N1CCOC(CC(NC(=O)C(C(C)C)N(C)C(=O)C3(F)CCN(C(=O)C#CC(C)(C)N(C)C)CC3)C(=O)N3CCCC(N3)C(=O)OCC(C)(C)C2)C1; > 7.50

Kindly consider the entry below.
Reported pIC50, compound Cc1nc(N2CCC3(CC2)COC(C)C3N)c(CO)nc1Sc1ccnc(N)c1Cl (centres undefined) + CCn1c(-c2cccnc2C(C)OC)c2c3cc(ccc31)N1CCOC(CC(NC(=O)C(C(C)C)N(C)C(=O)C3(F)CCN(C(=O)C#CC(C)(C)N(C)C)CC3)C(=O)N3CCCC(N3)C(=O)OCC(C)(C)C2)C1 : ____
> 7.50
